Reference source: paper PMC9610492

- system-name: BRD9 (bromodomain-containing protein 9) (Homo sapiens)
- protocol-summary: ITC with purified BRD9 (N = […]); BROMOscan […] inhibition at […]
- Assay type: binding
pKd: −log10 of the molar value.

molecule-smiles: O=c1cc(-c2ccc(O)c(O)c2)oc2c([C@@H]3O[C@H](CO)[C@@H](O)[C@H](O)[C@H]3O)c(O)cc(O)c12
system-name: BRD9 (bromodomain-containing protein 9) (Homo sapiens)
pKd: 4.70

---

- system-name: BRD9 (bromodomain-containing protein 9) (Homo sapiens)
- Sequence (Q9H8M2 1-597): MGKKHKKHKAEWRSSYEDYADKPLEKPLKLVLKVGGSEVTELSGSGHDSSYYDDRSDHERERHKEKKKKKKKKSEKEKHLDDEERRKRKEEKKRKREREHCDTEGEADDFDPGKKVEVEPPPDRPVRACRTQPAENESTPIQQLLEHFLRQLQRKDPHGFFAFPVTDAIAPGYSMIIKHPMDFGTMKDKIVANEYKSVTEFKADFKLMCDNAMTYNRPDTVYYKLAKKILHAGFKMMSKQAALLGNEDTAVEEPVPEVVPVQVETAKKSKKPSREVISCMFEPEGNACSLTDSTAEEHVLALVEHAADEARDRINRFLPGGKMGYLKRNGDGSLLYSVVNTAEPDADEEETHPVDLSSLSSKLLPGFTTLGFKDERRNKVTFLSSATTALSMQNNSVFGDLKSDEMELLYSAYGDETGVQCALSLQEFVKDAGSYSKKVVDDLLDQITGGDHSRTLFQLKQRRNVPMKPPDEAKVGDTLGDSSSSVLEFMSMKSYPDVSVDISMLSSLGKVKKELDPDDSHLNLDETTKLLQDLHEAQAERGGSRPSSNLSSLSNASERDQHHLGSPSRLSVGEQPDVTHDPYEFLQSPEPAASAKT
- protocol-summary: ITC with purified BRD9 (N = […]); BROMOscan […] inhibition at […]
- Format: binding
endpoint-name: Kd (µM)

molecule-smiles: O=C(CCc1ccc(O)c(O)c1)c1c(O)cc(O)c([C@@H]2O[C@H](CO)[C@@H](O)[C@H](O)[C@H]2O)c1O
result-value: 20
